Target: human JAK2 kinase domain (JH1) (Homo sapiens)
Construct: recombinantly generated catalytic kinase (also known as JH1) domain of human JAK1, JAK2, JAK3 and TYK2
Sequence (O60674 849-1124 limits assumed): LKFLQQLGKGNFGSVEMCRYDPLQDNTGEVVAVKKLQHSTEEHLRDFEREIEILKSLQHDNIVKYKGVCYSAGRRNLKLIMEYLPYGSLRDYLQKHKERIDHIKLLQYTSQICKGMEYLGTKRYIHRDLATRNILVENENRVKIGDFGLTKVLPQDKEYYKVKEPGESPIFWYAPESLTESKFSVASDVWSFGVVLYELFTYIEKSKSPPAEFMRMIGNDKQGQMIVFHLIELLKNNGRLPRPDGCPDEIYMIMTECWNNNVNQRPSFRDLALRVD
Experiment: JH1 biochemical assay for JAK2 (ADP-Glo kinase assay, recombinant JH1 catalytic domain, JAK3-974 peptide, 15 μM ATP)
Details: JH1 kinase domain, ADP-Glo
Structures can show the parent of a compound that is named as a salt.
Measured IC50, listed per entry.

compound="C[C@@H]1CN(c2nc(-c3cnn(C4CCCC4)c3)cn3ncc(F)c23)C(=O)[C@]1(C#N)C1CC1 [Example 217]" reported_measurement="< 0.1 µM"

Requested field: IC50. Item: Cc1nc(C)c(-c2cn3nccc3c(N3C[C@@H](C)[C@@](C#N)(C4CC4)C3=O)n2)s1 [Example 209] 0.1 to 1 µM

How about Cc1cc(-c2cc3c(N4CC[C@@](C#N)(C5CC5)C4=O)ccnn3c2)on1 [Example 11] ? 1 to 5 µM

How about C[C@@H]1CN(c2ccnn3cc(-c4cncc(C#N)n4)cc23)C(=O)[C@]1(C#N)C1CC1 [Example 133, trifluoroacetate] ? 1 to 5 µM
